Species: Rattus norvegicus
Assay: DrugMatrix - Regimen: Daily Repeat
Type: toxicity, organism-based, Sprague-Dawley
Design: regimen Daily Repeat, gender Male, age 6-8 weeks
Settings: in vivo, po, 0 mg/kg, 72 h, tissue Blood, route oral GAVAGE, dose level Control, time 3 day, […]

compound	HEMATOCRIT, %
COC1=CC(=O)C[C@@H](C)[C@]12Oc1c(Cl)c(OC)cc(OC)c1C2=O [GRISEOFULVIN]	33.68
CC(C)n1c(/C=C/C(O)CC(O)CC(=O)O)c(-c2ccc(F)cc2)c2ccccc21 (stereo not given) [FLUVASTATIN]	32.87
C=CCN [ALLYLAMINE]	46.77
c1ccc2[nH]c(-c3cscn3)nc2c1 [THIABENDAZOLE]	33.88
CC(C)(Oc1ccc(CCNC(=O)c2ccc(Cl)cc2)cc1)C(=O)O [BEZAFIBRATE]	32.58
Oc1c(Cl)cc(Cl)cc1Sc1cc(Cl)cc(Cl)c1O [BITHIONOL]	32.87
CSc1ccc2c(c1)N(CCC1CCCCN1C)c1ccccc1S2 (stereo not given) [THIORIDAZINE]	34.75
CC1=C(/C=C/C(C)=C/C=C/C(C)=C\C(=O)O)C(C)(C)CCC1 [ISOTRETINOIN]	34.07
COc1ccc2c(c1)c(CC(=O)OCC(=O)O)c(C)n2C(=O)c1ccc(Cl)cc1 [ACEMETACIN]	36.22
CN(C)CCCC1(c2ccc(F)cc2)OCc2cc(C#N)ccc21 (stereo not given) [CITALOPRAM]	35.4
CCCC[C@@H](CC)COC(=O)c1ccccc1C(=O)OC[C@@H](CC)CCCC [BIS(2-ETHYLHEXYL)PHTHALATE]	33.88
CC(=O)[C@H]1CC[C@H]2[C@@H]3CCC4=CC(=O)CC[C@]4(C)[C@H]3CC[C@]12C [PROGESTERONE]	35.4
Cn1cnc([N+](=O)[O-])c1Sc1ncnc2nc[nH]c12 [AZATHIOPRINE]	33.7
CCCCCCCCCc1ccc(O)cc1 [4-NONYLPHENOL]	36.87
COCc1c(C(C)C)nc(C(C)C)c(/C=C/[C@@H](O)C[C@@H](O)CC(=O)O)c1-c1ccc(F)cc1 [CERIVASTATIN]	36.87

====

Recorded SODIUM values for a group of molecules are listed next.
Species: Rattus norvegicus
Assay: DrugMatrix - Regimen: Daily Repeat
Format: toxicity, organism-based, Sprague-Dawley
Design: regimen Daily Repeat, gender Male, age 6-8 weeks
Details: in vivo, po, 0 mg/kg, 120 h, tissue Plasma, route oral GAVAGE, dose level Control, time 5 day, […]
reportedEndpoint: SODIUM (MEQ/L)

molecule	testResult
CC1=C(/C=C/C(C)=C/C=C/C(C)=C\C(=O)O)C(C)(C)CCC1 [ISOTRETINOIN]	143.65
COCc1c(C(C)C)nc(C(C)C)c(/C=C/[C@@H](O)C[C@@H](O)CC(=O)O)c1-c1ccc(F)cc1 [CERIVASTATIN]	142.2
CN(C)CCCC1(c2ccc(F)cc2)OCc2cc(C#N)ccc21 (centres undefined) [CITALOPRAM]	142.48
Oc1c(Cl)cc(Cl)cc1Sc1cc(Cl)cc(Cl)c1O [BITHIONOL]	144
CC(=O)[C@H]1CC[C@H]2[C@@H]3CCC4=CC(=O)CC[C@]4(C)[C@H]3CC[C@]12C [PROGESTERONE]	142.48
CSc1ccc2c(c1)N(CCC1CCCCN1C)c1ccccc1S2 (centres undefined) [THIORIDAZINE]	142.63
Cn1cnc([N+](=O)[O-])c1Sc1ncnc2nc[nH]c12 [AZATHIOPRINE]	143.17
C=CCN [ALLYLAMINE]	145.67
COC1=CC(=O)C[C@@H](C)[C@]12Oc1c(Cl)c(OC)cc(OC)c1C2=O [GRISEOFULVIN]	146.07

====

Species: Rattus norvegicus
Test: DrugMatrix - Regimen: Daily Repeat
Type: toxicity, organism-based, Sprague-Dawley
Set-up: regimen Daily Repeat, gender Male, age 6-8 weeks
Conditions: in vivo, po, 0 mg/kg, 120 h, tissue Plasma, route oral GAVAGE, dose level Control, time 5 day, […]
Recorded SODIUM values for a group of molecules are listed next.
reportedEndpoint: SODIUM (MEQ/L)

molecule	units	testResult
CC(C)(Oc1ccc(CCNC(=O)c2ccc(Cl)cc2)cc1)C(=O)O [BEZAFIBRATE]	MEQ/L	146.8
O=[N+]([O-])c1cc([As](=O)(O)O)ccc1O [ROXARSONE]	MEQ/L	146.8
c1ccc2[nH]c(-c3cscn3)nc2c1 [THIABENDAZOLE]	MEQ/L	143.87
CC(C)n1c(/C=C/C(O)CC(O)CC(=O)O)c(-c2ccc(F)cc2)c2ccccc21 (stereo unspecified) [FLUVASTATIN]	MEQ/L	144
COc1ccc2c(c1)c(CC(=O)OCC(=O)O)c(C)n2C(=O)c1ccc(Cl)cc1 [ACEMETACIN]	MEQ/L	142.62
CCCC[C@@H](CC)COC(=O)c1ccccc1C(=O)OC[C@@H](CC)CCCC [BIS(2-ETHYLHEXYL)PHTHALATE]	MEQ/L	143.87

====

Recorded PHOSPHORUS values for a group of compounds are listed next.
Organism: Rattus norvegicus
Experiment: DrugMatrix - Regimen: Daily Repeat
Assay type: toxicity, organism-based, Sprague-Dawley
Set-up: regimen Daily Repeat, gender Male, age 6-8 weeks
Details: in vivo, po, 1500 mg/kg, 120 h, tissue Plasma, route oral GAVAGE, dose level High, time 5 day, vehicle .5 % CMC
reportedEndpoint: PHOSPHORUS (mg/dL)

compound	reportedEndpoint	testResult
COC(=O)c1ccc(O)cc1 [METHYLPARABEN]	PHOSPHORUS	11.73
CCOC(=O)[C@H](CCc1ccccc1)N[C@@H](C)C(=O)N1[C@H](C(=O)O)C[C@@H]2CCC[C@@H]21	PHOSPHORUS	11.03
NS(=O)(=O)c1cc2c(cc1Cl)NCNS2(=O)=O [HYDROCHLOROTHIAZIDE]	PHOSPHORUS	12.1
O=C1CCc2cc(OCCCCc3nnnn3C3CCCCC3)ccc2N1 [CILOSTAZOL]	PHOSPHORUS	12.83

====

Recorded BASOPHIL values for a group of compounds are listed next.
Organism: Rattus norvegicus
Experiment: DrugMatrix - Regimen: Daily Repeat
Assay type: toxicity, organism-based, Sprague-Dawley
Design: regimen Daily Repeat, gender Male, age 6-8 weeks
Details: in vivo, po, 0 mg/kg, 120 h, tissue Blood, route oral GAVAGE, dose level Control, time 5 day, vehicle .5 % CMC

compound	BASOPHIL (%)
O=c1cc(-c2ccccc2)oc2c1ccc1ccccc12 [ALPHA-NAPHTHOFLAVONE]	1.14
O=C1CCc2cc(OCCCCc3nnnn3C3CCCCC3)ccc2N1 [CILOSTAZOL]	1.47
COc1c(C)c2c(c(O)c1C/C=C(\C)CCC(=O)OCCN1CCOCC1)C(=O)OC2 [MYCOPHENOLATE MOFETIL]	0
CC1(C)[C@H]2CC[C@]1(C)C(=O)C2 [(-)-CAMPHOR]	0
Cc1c(-c2ccccc2)oc2c(C(=O)OCCN3CCCCC3)cccc2c1=O [FLAVOXATE]	0
CN1CCC[C@@H]1CCO[C@](C)(c1ccccc1)c1ccc(Cl)cc1 [CLEMASTINE]	0
O=c1[nH]cc(F)c(=O)[nH]1 [FLUOROURACIL]	0
COC(=O)c1ccc(O)cc1 [METHYLPARABEN]	0
C[C@]12CCC(=O)C=C1CC[C@@H]1[C@@H]2C(=O)C[C@@]2(C)[C@H]1CC[C@]2(O)C(=O)CO [CORTISONE]	1.35
NCC(=O)O [GLYCINE]	0
CCc1cccc2c3c([nH]c12)C(CC)(CC(=O)O)OCC3 (stereo unspecified) [ETODOLAC]	1.35

====

Organism: Rattus norvegicus
Experiment: DrugMatrix - Regimen: Daily Repeat
Format: toxicity, organism-based, Sprague-Dawley
Set-up: regimen Daily Repeat, gender Male, age 6-8 weeks
Conditions: in vivo, ip, 0.5 mg/kg, 120 h, tissue Blood, route intraperitoneal, dose level High, time 5 day, vehicle 100 % SALINE
reportedEndpoint: ABSOLUTE LYMPHOCYTE (cells/µL)

chainSequence	units	testResult
CISPLATIN	cells/µL	5270

====

Recorded ASPARTATE AMINOTRANSFERASE values for a group of molecules are listed next.
Organism: Rattus norvegicus
Test: DrugMatrix - Regimen: Daily Repeat
Type: toxicity, organism-based, Sprague-Dawley
Set-up: regimen Daily Repeat, gender Male, age 6-8 weeks
Conditions: in vivo, po, 0 mg/kg, 72 h, tissue Plasma, route oral GAVAGE, dose level Control, time 3 day, vehicle 100 % WATER

molecule	ASPARTATE AMINOTRANSFERASE [u/L]
Clc1ccc(C(c2ccccc2Cl)C(Cl)Cl)cc1 (centres undefined)	106.17
Cn1cnc([N+](=O)[O-])c1Sc1ncnc2nc[nH]c12	74.5
COc1cc2c(N3CCN(C(=O)Nc4ccc(OC(C)C)cc4)CC3)ncnc2cc1OCCCN1CCCCC1	86.17
Cc1cc(NS(=O)(=O)c2ccc(N)cc2)no1	82.83
O=C1NC(=O)C(c2ccccc2)(c2ccccc2)N1	77.33
CN1CCN(C(=O)OC2c3nccnc3C(=O)N2c2ccc(Cl)cn2)CC1 (centres undefined)	81.83
NCC1(CC(=O)O)CCCCC1	84.17
C[C@]12Cc3c[nH]nc3C[C@@H]1CC[C@@H]1[C@@H]2CC[C@@]2(C)[C@H]1CC[C@]2(C)O	84
CC(C)(S)[C@@H](N)C(=O)O	82.17

Values were extracted from ChEMBL document CHEMBL3885881.
